- recordedConditions: in acetone, 290.65 K
parameter: solubility (mole fraction)
Field format: numeric only.

GET /values?readout=solubility (mole fraction)&item= `Nc1ccc([N+](=O)[O-])cc1[N+](=O)[O-]` 0.0407

----------
- recordedConditions: in ethanol, 283.15 K
parameter: solubility (mole fraction)

Request the reported solubility (mole fraction) associated with `Nc1ccc([N+](=O)[O-])cc1[N+](=O)[O-]` 0.00154

----------
- recordedConditions: in acetone, 313.15 K
parameter: solubility (mole fraction)
Note: the reply should be a number with no unit written.

I'd like to know its solubility (mole fraction). The compound in question is `Nc1ccc([N+](=O)[O-])cc1[N+](=O)[O-]` 0.0723

----------
- recordedConditions: in acetonitrile, 300.65 K
parameter: solubility (mole fraction)
Just the number, please, no unit after it.

Fill in: solubility (mole fraction) of `Nc1ccc([N+](=O)[O-])cc1[N+](=O)[O-]` is ___ 0.0161

----------
- recordedConditions: in acetonitrile, 313.15 K
parameter: solubility (mole fraction)
// return a plain number; no unit text

What measured solubility (mole fraction) goes with `Nc1ccc([N+](=O)[O-])cc1[N+](=O)[O-]` ? 0.023

----------
- recordedConditions: in acetone, 303.15 K
parameter: solubility (mole fraction)
Give only the figure.

What solubility (mole fraction) value was documented for this molecule, `Nc1ccc([N+](=O)[O-])cc1[N+](=O)[O-]` ? 0.0565

----------
- recordedConditions: in acetone, 318.15 K
parameter: solubility (mole fraction)
Enter a number only.

Bench note: what solubility (mole fraction) did `Nc1ccc([N+](=O)[O-])cc1[N+](=O)[O-]` show? 0.0815

----------
- recordedConditions: in isopropanol, 298.15 K
parameter: solubility (mole fraction)
In your answer, state the number alone without any accompanying words.

Consider the compound shown here: `Nc1ccc([N+](=O)[O-])cc1[N+](=O)[O-]` What is its recorded solubility (mole fraction)? 0.00227

----------
- recordedConditions: in isopropanol, 283.15 K
parameter: solubility (mole fraction)
In your answer, state the number alone without any accompanying words.

Return reported solubility (mole fraction); argument: `Nc1ccc([N+](=O)[O-])cc1[N+](=O)[O-]` 0.0011

----------
- recordedConditions: in acetonitrile, 298.15 K
parameter: solubility (mole fraction)

Which value of solubility (mole fraction) has been reported for `Nc1ccc([N+](=O)[O-])cc1[N+](=O)[O-]` in the records? 0.0149

----------
- recordedConditions: in n-butanol, 313.15 K
parameter: solubility (mole fraction)
// keep it numeric: no unit symbol after the value

What measured solubility (mole fraction) goes with `Nc1ccc([N+](=O)[O-])cc1[N+](=O)[O-]` ? 0.00589

----------
- recordedConditions: in toluene, 293.15 K
parameter: solubility (mole fraction)
Give the value as a plain number.

Which measured solubility (mole fraction) value corresponds to `Nc1ccc([N+](=O)[O-])cc1[N+](=O)[O-]` ? 0.000724

----------
- recordedConditions: in ethyl acetate, 283.15 K
parameter: solubility (mole fraction)
The response must contain the number and no unit.

Can you look up the measured solubility (mole fraction) of `Nc1ccc([N+](=O)[O-])cc1[N+](=O)[O-]` for me? 0.0138

----------
- recordedConditions: in toluene, 318.15 K
parameter: solubility (mole fraction)
Please state the value as a number alone, without comment.

Can you share its solubility (mole fraction)? I mean this molecule: `Nc1ccc([N+](=O)[O-])cc1[N+](=O)[O-]` 0.00217
